Source: the Human Domainome abundance scans (Beltran et al. 2025)

B1: Connector enhancer of kinase suppressor of ras 2, residues 9 to 71; numbered along this chain, Q8WXI2 (parent)
chain: SKWSPSQVVDWMKGLDDCLQQYIKNFEREKISGDQLLRITHQELEDLGVSRIGHQELILEAVD

- Variants of: B1
- assay-summary: abundance fitness (aPCA) (normalised: wild type 0, dead -1); higher = more abundant; growth selection in yeast, the domain comes from the species named
- experimental-context: Homo sapiens
Quick rule for you: abundance fitness at -0.2 or higher means Criterion met, lower means Criterion not met.

I58V Criterion not met
R51I Criterion met

Reported abundance fitness at or above -0.2? `E29R` Criterion met

Reported abundance fitness at or above -0.2? `H41E` Criterion met

Reported abundance fitness at or above -0.2? `C18T` Criterion not met

Reported abundance fitness at or above -0.2? `L59C` Criterion not met

Reported abundance fitness at or above -0.2? `G53Q` Criterion met

Reported abundance fitness at or above -0.2? `G14S` Criterion met
